Entries and their pIC50
Target: recombinant human PREP (Homo sapiens (Human))
Sequence (P48147 whole entry): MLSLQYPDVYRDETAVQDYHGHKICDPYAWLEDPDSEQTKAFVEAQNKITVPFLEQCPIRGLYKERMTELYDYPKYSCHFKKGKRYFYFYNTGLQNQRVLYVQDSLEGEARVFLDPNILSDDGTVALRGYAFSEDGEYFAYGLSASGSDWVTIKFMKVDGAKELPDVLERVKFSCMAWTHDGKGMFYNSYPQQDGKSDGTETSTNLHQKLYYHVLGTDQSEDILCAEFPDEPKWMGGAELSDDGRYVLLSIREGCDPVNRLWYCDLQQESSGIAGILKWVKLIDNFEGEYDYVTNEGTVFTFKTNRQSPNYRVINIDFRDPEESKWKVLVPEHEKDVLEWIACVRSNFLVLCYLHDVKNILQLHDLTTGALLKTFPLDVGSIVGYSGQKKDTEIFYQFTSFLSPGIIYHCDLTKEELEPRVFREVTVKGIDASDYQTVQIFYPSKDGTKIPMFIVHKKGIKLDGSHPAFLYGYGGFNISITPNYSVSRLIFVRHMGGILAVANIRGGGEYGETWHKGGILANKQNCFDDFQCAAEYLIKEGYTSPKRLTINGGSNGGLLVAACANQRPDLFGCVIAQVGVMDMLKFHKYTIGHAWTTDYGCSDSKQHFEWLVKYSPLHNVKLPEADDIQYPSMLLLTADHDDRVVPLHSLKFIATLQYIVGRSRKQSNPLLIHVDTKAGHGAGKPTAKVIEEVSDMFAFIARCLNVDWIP
Assay: PREP protease activity assay
pIC50: −log10 of the molar value.

Compound	Assay Target	pIC50
N#C[C@@H]1CCCN1C(=O)CNC(=O)c1ccnc2ccc(-c3ccc(C(=O)NCCCN(CC(=O)O)C(=O)CN4CCN(CC(=O)O)CCN(CC(=O)O)CCN(CC(=O)O)CC4)cc3)cc12 [Compound 3BP-3954]	recombinant human PREP (Homo sapiens (Human))	< 6.00
N#C[C@@H]1CCCN1C(=O)CNC(=O)c1ccnc2ccc(-c3ccc(C(=O)O)cc3)cc12 [Compound 3BP-3295]	recombinant human PREP (Homo sapiens (Human))	< 6.00

* * *

Molecular target: Human recombinant FAP (Homo sapiens (Human), UniProt Q12884)
Sequence (Q12884 whole entry): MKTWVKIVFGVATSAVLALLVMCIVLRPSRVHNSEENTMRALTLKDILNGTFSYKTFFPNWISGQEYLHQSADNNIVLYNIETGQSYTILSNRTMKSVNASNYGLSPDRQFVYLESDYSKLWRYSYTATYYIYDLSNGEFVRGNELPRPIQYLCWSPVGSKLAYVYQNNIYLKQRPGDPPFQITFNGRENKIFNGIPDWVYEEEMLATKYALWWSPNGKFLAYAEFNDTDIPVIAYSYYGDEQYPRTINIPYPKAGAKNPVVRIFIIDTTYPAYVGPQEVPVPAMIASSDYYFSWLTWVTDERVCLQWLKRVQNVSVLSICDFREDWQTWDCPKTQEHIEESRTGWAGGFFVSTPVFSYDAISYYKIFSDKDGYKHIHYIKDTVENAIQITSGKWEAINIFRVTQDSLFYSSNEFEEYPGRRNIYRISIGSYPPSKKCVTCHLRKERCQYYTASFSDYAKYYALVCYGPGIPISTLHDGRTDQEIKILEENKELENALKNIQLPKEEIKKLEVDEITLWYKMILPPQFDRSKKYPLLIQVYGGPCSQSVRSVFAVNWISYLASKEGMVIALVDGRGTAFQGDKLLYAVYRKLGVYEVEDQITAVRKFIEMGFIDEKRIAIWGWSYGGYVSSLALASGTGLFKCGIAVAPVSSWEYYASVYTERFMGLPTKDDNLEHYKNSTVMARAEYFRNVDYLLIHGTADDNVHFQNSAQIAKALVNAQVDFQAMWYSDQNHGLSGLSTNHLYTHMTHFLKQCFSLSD
Assay: Surface plasmon resonance assay (Biacore T200, SCK)
Type: binding
Conditions: SPR dissociation half-life
Measured Metric: HL [min] (Biacore) (min)

Compound	Measured Metric	Assay Value
O=C(O)CN1CCN(CC(=O)O)CCN(CC(=O)NCCCS(=O)(=O)c2ccc(-c3ccc4nccc(C(=O)NCC(=O)N5CCC[C@H]5C(=O)c5nc6ccccc6o5)c4c3)cc2)CCN(CC(=O)O)CC1	HL [min] (Biacore)	120
CS(=O)(=O)c1ccc(-c2ccc3nccc(C(=O)NCC(=O)N4CCC[C@H]4C#N)c3c2)cc1	HL [min] (Biacore)	12
N#C[C@@H]1CC(F)(F)CN1C(=O)CNC(=O)c1ccnc2c1=CC(OCCCN1CCN(C(=O)CN3CCN4CCN5CCN(CC3)CC(=O)[O][In]([O]C(=O)C5)[O]C(=O)C4)CC1)CC=2 (stereo partly drawn)	HL [min] (Biacore)	69
CS(=O)(=O)c1cccc(-c2ccc3nccc(C(=O)NCC(=O)N4CC(F)(F)C[C@H]4C#N)c3c2)c1	HL [min] (Biacore)	29
CS(=O)(=O)c1cccc(-c2ccc3nccc(C(=O)NCC(=O)N4CCC[C@H]4C#N)c3c2)c1	HL [min] (Biacore)	2.5
CS(=O)(=O)c1cccc(-c2ccc3c(C(=O)NCC(=O)N4CCC[C@H]4C#N)ccnc3c2)c1	HL [min] (Biacore)	5.7

* * *

Experiment: Plasma stability assay (mouse plasma)
Assay type: in vitro ADME
Conditions: 37° C., 4 h
Listed below: % intact compound remaining after incubation, Mouse plasma values for each entry.
Measured Metric: % intact compound remaining after incubation, Mouse plasma (%)

> print(dat)
                                   molecule  comparative.sign  assay.value
1  CS(=O)(=O)c1cccc(-c2ccc3c(C(=O)NCC(=O)N4CC(F)(F)C[C@H]4C#N)ccnc3c2)c1 [Compound 3BP-3127]                 >           95
2  O=C(NCC(=O)N1CCC[C@H]1C(=O)c1ncco1)c1ccnc2ccccc12 [Compound 3BP-3208]                 =           92
3  CS(=O)(=O)c1ccc(-c2ccc3c(C(=O)NCC(=O)N4CCC[C@H]4C#N)ccnc3c2)cc1 [Compound 3BP-3128]                 >           95
4  CS(=O)(=O)c1cccc(-c2ccc3nccc(C(=O)NCC(=O)N4CC(F)(F)C[C@H]4C#N)c3c2)c1 [Compound 3BP-3126]                 =           78

* * *

Listing of entries alongside the reported Residual activity after incubation with HT-29 cells for 24 hours (%).
System: HT-29 cells
Test: Stability in the presence of tumor cells (HT-29), FAP IC50 of supernatants
Assay type: in vitro ADME, human
Details: HT-29 cells, 24 hours
Measured Metric: Residual activity after incubation with HT-29 cells for 24 hours (%)

Compound	Assay Target	Assay Value
N#C[C@@H]1CC(F)(F)CN1C(=O)CNC(=O)c1ccnc2ccccc12	HT-29 cells	13%
N#C[C@@H]1CC(F)(F)CN1C(=O)CNC(=O)c1ccnc2ccc(OCCCN3CCN(C(=O)CN4CCN5CCN6CCN(CC4)CC(=O)[O][Lu]([O]C(=O)C6)[O]C(=O)C5)CC3)cc12	HT-29 cells	13%
N#C[C@@H]1CC(F)(F)CN1C(=O)CNC(=O)c1ccnc2ccc(OCCCN3CCN(C(=O)CN4CCN(CC(=O)O)CCN(CC(=O)O)CCN(CC(=O)O)CC4)CC3)cc12 [Compound 3BP-2929, reference compound]	HT-29 cells	16%
O=C(O)CN1CCN(CC(=O)O)CCN(CC(=O)N2CCN(CCCOc3ccc4nccc(C(=O)NCC(=O)N5CC(F)(F)C[C@H]5C(=O)c5nc6ccccc6o5)c4c3)CC2)CCN(CC(=O)O)CC1	HT-29 cells	>95%
O=C(O)CN1CCN(CC(=O)O)CCN(CC(=O)NCCCS(=O)(=O)c2ccc(-c3ccc4nccc(C(=O)NCC(=O)N5CCC[C@H]5C(=O)c5nc6ccccc6o5)c4c3)cc2)CCN(CC(=O)O)CC1	HT-29 cells	>95%
N#C[C@@H]1CCCN1C(=O)CNC(=O)c1ccnc2ccccc12	HT-29 cells	63%
N#C[C@@H]1CC(F)(F)CN1C(=O)CNC(=O)c1ccnc2ccc(-c3ccc(S(=O)(=O)CCCNC(=O)CN4CCN(CC(=O)O)CCN(CC(=O)O)CCN(CC(=O)O)CC4)cc3)cc12	HT-29 cells	13%
O=C(O)CN1CCN(CC(=O)O)CCN(CC(=O)N2CCN(CCCOc3ccc4nccc(C(=O)NCC(=O)N5CCC[C@H]5C(=O)c5nc6ccccc6o5)c4c3)CC2)CCN(CC(=O)O)CC1	HT-29 cells	>95%

* * *

Molecular target: Human recombinant FAP (Homo sapiens (Human))
Assay: Surface plasmon resonance assay (Biacore T200, SCK)
Format: binding
Conditions: SPR dissociation half-life

Compound	Comparative Sign	HL [min] (Biacore) / min
N#C[C@@H]1CC(F)(F)CN1C(=O)CNC(=O)c1ccnc2ccc(-c3ccc(C(=O)NCCN4CCN(C(=O)CN5CCN(CC(=O)O)CCN(CC(=O)O)CCN(CC(=O)O)CC5)CC4)cc3)cc12 [Compound 3BP-3631]	>	150
N#C[C@@H]1CCCN1C(=O)CNC(=O)c1ccnc2ccc(-c3ccc(C(=O)NCCCNC(O)CN4CCN5CCN6CCN(CC4)CC(=O)[O][Eu]([O]C(=O)C6)[O]C(=O)C5)cc3)cc12 (some centres unmarked) [Compound 3BP-3830]	=	64
N#C[C@@H]1CC(F)(F)CN1C(=O)CNC(=O)c1ccnc2ccc(-c3ccc(C(=O)NCCCNC(=O)CN4CCN(CC(=O)O)CCN(CC(=O)O)CCN(CC(=O)O)CC4)cc3)cc12 [Compound 3BP-3621]	>	150
N#C[C@@H]1CC(F)(F)CN1C(=O)CNC(=O)c1ccnc2ccc(-c3ccc(C(=O)NCCN4CCN(C(=O)CN5CCN(CC(=O)O)CCN(CC(=O)O)CCN(CC(=O)O)CC5)CC4)nc3)cc12 [Compound 3BP-4076]	>	150
N#C[C@@H]1CC(F)(F)CN1C(=O)CNC(=O)c1ccnc2ccc(-c3ccc(C(=O)NCCCNC(O)CN4CCN5CCN6CCN(CC4)CC(=O)[O][Eu]([O]C(=O)C6)[O]C(=O)C5)cc3)cc12 (some centres unmarked) [Compound 3BP-3829]	>	150
N#C[C@@H]1CCCN1C(=O)CNC(=O)c1ccnc2ccc(-c3ccc(C(=O)NCCCNC(=O)CN4CCN(CC(=O)O)CCN(CC(=O)O)CCN(CC(=O)O)CC4)cc3)cc12 [Compound 3BP-3785]	>	150
O=C(NCC(=O)N1CCC[C@H]1C(=O)c1ncco1)c1ccnc2ccccc12 [Compound 3BP-3208]	=	0.6
CS(=O)(=O)c1ccc(-c2ccc3c(C(=O)NCC(=O)N4CCC[C@H]4C#N)ccnc3c2)cc1 [Compound 3BP-3128]	=	4
O=C(NCC(=O)N1CCC[C@H]1C(=O)CO)c1ccnc2ccccc12 [Compound 3BP-4197]	=	3.1
O=C(O)CN1CCN(CC(=O)O)CCN(CC(=O)NCCCNC(=O)c2ccc(-c3ccc4nccc(C(=O)NCC(=O)N5CCC[C@H]5B(O)O)c4c3)cc2)CCN(CC(=O)O)CC1 [Compound 3BP-4201]	>	150
N#C[C@@H]1CCCN1C(=O)CNC(=O)c1ccnc2ccc(-c3ccc(C(=O)O)cc3)cc12 [Compound 3BP-3295]	=	11

* * *

Target: Recombinant mouse FAP (Mus musculus (Mouse), UniProt P97321)
Sequence (P97321 whole entry): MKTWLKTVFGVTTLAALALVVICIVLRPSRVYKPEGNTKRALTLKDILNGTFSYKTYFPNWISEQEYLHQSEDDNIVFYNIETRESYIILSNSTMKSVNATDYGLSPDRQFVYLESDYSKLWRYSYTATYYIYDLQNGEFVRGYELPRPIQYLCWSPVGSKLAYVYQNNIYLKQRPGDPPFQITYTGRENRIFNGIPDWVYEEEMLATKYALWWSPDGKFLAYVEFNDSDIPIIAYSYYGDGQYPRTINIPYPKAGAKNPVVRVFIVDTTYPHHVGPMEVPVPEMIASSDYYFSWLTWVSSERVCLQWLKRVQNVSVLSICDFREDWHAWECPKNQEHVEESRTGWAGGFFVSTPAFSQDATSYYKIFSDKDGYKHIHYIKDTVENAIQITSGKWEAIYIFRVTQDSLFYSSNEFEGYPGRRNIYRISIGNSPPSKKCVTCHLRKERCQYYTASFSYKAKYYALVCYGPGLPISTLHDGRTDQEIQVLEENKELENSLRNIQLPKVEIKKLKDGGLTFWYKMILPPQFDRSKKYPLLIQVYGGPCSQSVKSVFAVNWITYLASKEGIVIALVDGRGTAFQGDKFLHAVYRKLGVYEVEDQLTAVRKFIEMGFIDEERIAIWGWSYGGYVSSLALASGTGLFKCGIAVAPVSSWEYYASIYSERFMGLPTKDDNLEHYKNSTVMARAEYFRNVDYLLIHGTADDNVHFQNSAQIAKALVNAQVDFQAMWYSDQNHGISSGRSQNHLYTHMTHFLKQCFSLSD
Assay: FAP protease activity assay (mouse), FRET-based
Assay type: biochemical
Settings: recombinant mouse FAP protease activity
As shown below, each of these molecules has a reported pIC50 (mouseFAP) value.

Molecule	Assay Target	pIC50 (mouseFAP)
CS(=O)(=O)c1ccc(-c2ccc3nccc(C(=O)NCC(=O)N4C[C@@H](F)C[C@H]4C#N)c3c2)cc1	Recombinant mouse FAP (Mus musculus (Mouse), UniProt P97321)	9.2
N#C[C@@H]1CC(F)(F)CN1C(=O)CNC(=O)c1ccnc2ccc(-c3ccc(C(=O)NCCCNC(O)CN4CCN5CCN6CCN(CC4)CC(=O)[O][Eu]([O]C(=O)C6)[O]C(=O)C5)cc3)cc12 (some centres unmarked)	Recombinant mouse FAP (Mus musculus (Mouse), UniProt P97321)	8.9
Cc1cc2nccc(C(=O)NCC(=O)N3CC(F)(F)C[C@H]3C#N)c2cc1-c1ccc(S(C)(=O)=O)cc1	Recombinant mouse FAP (Mus musculus (Mouse), UniProt P97321)	8.8
Cc1cc(S(C)(=O)=O)ccc1-c1ccc2nccc(C(=O)NCC(=O)N3CCC[C@H]3C#N)c2c1	Recombinant mouse FAP (Mus musculus (Mouse), UniProt P97321)	8.9
N#C[C@@H]1CCCN1C(=O)CNC(=O)c1ccnc2ccc(-c3ccc(C(=O)NCCCNC(O)CN4CCN5CCN6CCN(CC4)CC(=O)[O][Eu]([O]C(=O)C6)[O]C(=O)C5)cc3)cc12 (some centres unmarked)	Recombinant mouse FAP (Mus musculus (Mouse), UniProt P97321)	8.7
Cc1cc(S(C)(=O)=O)ccc1-c1ccc2nccc(C(=O)NCC(=O)N3CC(F)(F)C[C@H]3C#N)c2c1	Recombinant mouse FAP (Mus musculus (Mouse), UniProt P97321)	8.8
CS(=O)(=O)c1cc(F)c(-c2ccc3nccc(C(=O)NCC(=O)N4CCC[C@H]4C#N)c3c2)c(F)c1	Recombinant mouse FAP (Mus musculus (Mouse), UniProt P97321)	9
CS(=O)(=O)c1ccc(-c2ccc3nccc(C(=O)NCC(=O)N4C[C@H](F)C[C@H]4C#N)c3c2)cc1	Recombinant mouse FAP (Mus musculus (Mouse), UniProt P97321)	8
